Reported IC50 against UniProtKB Q9NWZ3, gathered from multiple publications, appears below.
Rule: measured IC50 below 50 nM gets label 1; anything equal to or greater than 50 nM gets label 0.

[
  {
    "compound": "Cn1cc(-c2cccc(C(=O)Nc3nc(CCCC(=O)N4CCN(C5CCCCC5)CC4)cn3-c3ccccc3)c2)cn1",
    "assigned_label": "label 1"
  },
  {
    "compound": "CC(C)Cc1nc(-c2cnc3ccc(-c4cn[nH]c4)cc3c2NC(C)C)n[nH]1",
    "assigned_label": "label 0"
  },
  {
    "compound": "CC(C)Nc1cc(Nc2ccc3ncc(F)cc3n2)ncc1C(=O)NC[C@@H](F)C(C)(C)O",
    "assigned_label": "label 1"
  },
  {
    "compound": "CCC(C)(O)Cn1cc(-c2cnc(-n3ncc4cc(C#N)cnc43)cc2NC(C)C)nn1 (single isomer, unassigned)",
    "assigned_label": "label 1"
  },
  {
    "compound": "N#Cc1ccc(-n2cnc3cc(OCCOCCO)c(NC4CCC(F)(F)CC4)nc32)nc1",
    "assigned_label": "label 1"
  },
  {
    "compound": "CC(C)Nc1cc(-n2ncc3cc(C#N)cnc32)ncc1-n1ccc(-c2cccnc2)n1",
    "assigned_label": "label 1"
  },
  {
    "compound": "COC1CC(Nc2cc(-c3cnn4cc(Cl)cnc34)ncc2C(=O)NC[C@@H](F)C(C)(C)O)CC1(F)F (single isomer, unassigned)",
    "assigned_label": "label 1"
  },
  {
    "compound": "O=C(Nc1nc(CCCCCCN2CCCCC2)cn1-c1ccc(F)cc1)c1cccc(-c2cn[nH]c2)c1",
    "assigned_label": "label 1"
  },
  {
    "compound": "CC(C)Nc1c(C(=O)NCc2nnc[nH]2)cnc2c1Oc1cc(C#N)ccc1O2",
    "assigned_label": "label 0"
  },
  {
    "compound": "O=C(Nc1nc(CCCCCCN2CCCC2=O)cn1-c1ccccc1)c1cccc(-c2ccc3[nH]ncc3c2)c1",
    "assigned_label": "label 1"
  }
]
